biological target: Cytochrome P450 2C9 (Homo sapiens)
Sequence (P11712 whole entry): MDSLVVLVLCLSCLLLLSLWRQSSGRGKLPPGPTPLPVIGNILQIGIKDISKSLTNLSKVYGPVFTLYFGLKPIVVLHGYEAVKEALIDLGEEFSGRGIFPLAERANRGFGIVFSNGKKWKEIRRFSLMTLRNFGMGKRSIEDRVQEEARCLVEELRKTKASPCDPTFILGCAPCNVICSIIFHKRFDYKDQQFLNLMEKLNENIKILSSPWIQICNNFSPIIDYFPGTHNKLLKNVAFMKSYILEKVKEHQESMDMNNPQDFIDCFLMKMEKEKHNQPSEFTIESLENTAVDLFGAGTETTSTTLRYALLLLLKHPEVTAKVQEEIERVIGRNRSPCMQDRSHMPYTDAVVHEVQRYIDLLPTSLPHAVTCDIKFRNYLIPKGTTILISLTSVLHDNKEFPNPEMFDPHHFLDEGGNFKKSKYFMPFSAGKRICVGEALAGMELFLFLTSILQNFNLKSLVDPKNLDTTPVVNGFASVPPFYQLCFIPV
Property: log10(IC50) (log10 of the value in nM)
Recorded IC50 (log10, nM)

Check out these entries, answers already filled in.
Smiles code	log10(IC50)
COc1cccc(-c2nc(CCOc3cccc(C[C@@H]4C(=O)N(c5ccc(C(C)(C)C)cc5)[C@@H]4C(=O)O)c3)c(C)o2)c1	2.81
Cc1oc(-c2cccc(Cl)c2)nc1CCOc1cccc(C[C@@H]2C(=O)N(c3ccc(C(C)(C)C)cc3)[C@@H]2C(=O)O)c1	2.83
Cc1oc(-c2ccccc2)nc1CCOc1ccc(C[C@@H]2C(=O)N(c3ccc(C(C)(C)C)cc3)[C@@H]2C(=O)O)cc1	3.36
Cc1oc(-c2ccccc2)nc1CCOc1ccc(C[C@H]2C(=O)N(c3ccc(C(C)(C)C)cc3)[C@H]2C(=O)O)cc1	3.48

log10(IC50) of Cc1oc(-c2ccccc2)nc1CCOc1cccc(C[C@@H]2C(=O)N(c3ccc(C(C)(C)C)cc3)[C@@H]2C(=O)O)c1 , assay on Cytochrome P450 2C9 (Homo sapiens), is 2.36

log10(IC50) of Cc1oc(-c2ccccc2)nc1CCOc1cccc(C[C@H]2C(=O)N(c3ccc(C(C)(C)C)cc3)[C@H]2C(=O)O)c1 , assay on Cytochrome P450 2C9 (Homo sapiens), is 2.83

log10(IC50) of COc1ccc(N2C(=O)[C@@H](Cc3cccc(OCCc4nc(-c5ccccc5)oc4C)c3)[C@H]2C(=O)O)cc1 , assay on Cytochrome P450 2C9 (Homo sapiens), is 3.34

====

compounds and their reported pIC50
target: UniProt P08684; experiment: Inhibition of CYP3A4 in presence of 7-benzyloxy-4-trifluoromethyl coumarin substrate; type: ADME
Sequence (P08684 whole entry): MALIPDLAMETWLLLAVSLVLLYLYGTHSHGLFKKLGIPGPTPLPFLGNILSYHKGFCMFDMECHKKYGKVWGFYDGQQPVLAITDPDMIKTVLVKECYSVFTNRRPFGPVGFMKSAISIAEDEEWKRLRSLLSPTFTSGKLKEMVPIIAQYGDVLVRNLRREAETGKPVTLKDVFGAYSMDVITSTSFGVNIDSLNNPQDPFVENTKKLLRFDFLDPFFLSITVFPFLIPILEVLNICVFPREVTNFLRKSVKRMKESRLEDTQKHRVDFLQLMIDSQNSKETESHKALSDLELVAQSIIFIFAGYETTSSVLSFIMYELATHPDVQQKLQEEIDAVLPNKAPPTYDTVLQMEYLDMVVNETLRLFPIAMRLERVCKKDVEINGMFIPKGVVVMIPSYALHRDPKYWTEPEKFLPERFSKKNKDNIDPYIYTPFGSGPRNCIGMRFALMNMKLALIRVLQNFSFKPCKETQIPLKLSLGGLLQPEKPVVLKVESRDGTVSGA
Keep it numeric: pIC50 is minus log10 of the concentration in mol/L.

pIC50 of Cc1oc(-c2ccccc2)nc1CCOc1cccc(C[C@H]2C(=O)N(c3ccc(C(C)(C)C)cc3)[C@H]2C(=O)O)c1 , assay on UniProt P08684, is 4.70

pIC50 of Cc1oc(-c2ccccc2)nc1CCOc1cccc(C[C@@H]2C(=O)N(c3ccc(C(C)(C)C)cc3)[C@@H]2C(=O)O)c1 , assay on UniProt P08684, is 4.77

pIC50 of COc1ccc(N2C(=O)[C@@H](Cc3cccc(OCCc4nc(-c5ccccc5)oc4C)c3)[C@H]2C(=O)O)cc1 , assay on UniProt P08684, is 4.30

pIC50 of Cc1oc(-c2ccc(Cl)cc2)nc1CCOc1cccc(C[C@@H]2C(=O)N(c3ccc(C(C)(C)C)cc3)[C@@H]2C(=O)O)c1 , assay on UniProt P08684, is 5.33

pIC50 of COc1ccc(N2C(=O)[C@@H](Cc3ccc(OCCc4nc(-c5ccccc5)oc4C)cc3)[C@H]2C(=O)O)cc1 , assay on UniProt P08684, is 4.48

====

target: Peroxisome proliferator-activated receptor alpha (Homo sapiens); assay: Agonist activity at PPARalpha in HEK293 cells by GAL4 transactivation assay
Sequence (Q07869 whole entry, the tested form may be a part): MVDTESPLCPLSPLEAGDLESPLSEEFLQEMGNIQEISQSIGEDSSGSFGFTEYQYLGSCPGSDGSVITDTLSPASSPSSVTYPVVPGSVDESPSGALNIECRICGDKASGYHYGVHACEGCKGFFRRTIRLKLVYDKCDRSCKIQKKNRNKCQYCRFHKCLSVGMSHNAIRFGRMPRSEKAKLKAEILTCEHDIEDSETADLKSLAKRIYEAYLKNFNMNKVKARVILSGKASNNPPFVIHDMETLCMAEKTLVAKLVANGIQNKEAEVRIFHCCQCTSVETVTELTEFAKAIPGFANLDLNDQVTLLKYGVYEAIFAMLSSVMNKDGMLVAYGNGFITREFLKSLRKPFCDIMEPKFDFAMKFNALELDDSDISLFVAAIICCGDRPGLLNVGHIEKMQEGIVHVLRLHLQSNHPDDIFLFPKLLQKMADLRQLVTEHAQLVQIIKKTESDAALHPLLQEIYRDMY
Checkbox rule: EC50 lower than 40 nM = Satisfied; EC50 not lower than 40 nM = Not satisfied.

Compound	Class label
COc1ccc(N2C(=O)C(Cc3cccc(OCCc4nc(-c5ccccc5)oc4C)c3)C2C(=O)O)cn1 (racemic)	Not satisfied
COc1ccc(N2C(=O)[C@H](Cc3cccc(OCCc4nc(-c5ccccc5)oc4C)c3)[C@@H]2C(=O)O)cc1	Not satisfied
Cc1oc(-c2ccccc2)nc1CCOc1ccc(C[C@@H]2C(=O)N(c3ccc(C(C)(C)C)cc3)[C@@H]2C(=O)O)cc1	Satisfied
Cc1oc(-c2ccccc2)nc1CCOc1cccc(CC2C(=O)N(c3ccc(Cl)cc3)C2C(=O)O)c1 (racemic)	Not satisfied
COc1ccc(N2C(=O)[C@@H](Cc3cccc(OCCc4nc(-c5ccccc5)oc4C)c3)[C@H]2C(=O)O)cc1	Not satisfied
COc1ccc(N2C(=O)[C@@H](Cc3ccc(OCCc4nc(-c5ccccc5)oc4C)cc3)[C@H]2C(=O)O)cc1	Not satisfied
COc1ccc(N2C(=O)C(Cc3cccc(OCCc4nc(-c5ccccc5)oc4C)c3)C2C(=O)O)cc1 (racemic)	Not satisfied
COc1ccc(-c2nc(CCOc3cccc(C[C@@H]4C(=O)N(c5ccc(C(C)(C)C)cc5)[C@@H]4C(=O)O)c3)c(C)o2)cc1	Satisfied

Okay, next one:
Is it true that EC50 reported for CCCCCCCN(CCc1ccc(O[C@@](C)(CC)C(=O)O)cc1)C(=O)Nc1ccc(F)cc1F is less than 40 nM?
Not satisfied
